target: 人PD-L1 expressed on cells (表达PD-L1的CHO细胞) (human) (UniProt Q9NZQ7); experiment: cell-based or functional assay
PROPERTY_LABEL: IL-2分泌 (混合淋巴细胞反应) EC50 (µg/mL)
Express your answer in µg/mL, writing the number without its unit.

# BINDER, IL-2分泌 (混合淋巴细胞反应) EC50, µg/mL
data = [
    ("18B7F4G8 (antibody, V domains shown, Mouse hybridoma clone; Detected with goat anti-mouse IgG) VH: DVQLQESGPDLVKPSQSLSLTCTVTGYSITSGYTWHWIRQFPGNKLEWMGYIHYSGSTKYNPSLKSRFSITRDTSKNQFFLQLNSMTAEDTATYYCARNSLFASWGHGTLVTVSA VL: DIVLTQSPASLAVSLGQRATISCRASESVDTYGDSFMHWFQQKPGQPPKLLIYRASNLESGIPARFSGSGSRTDFTLTINPVEADDVATYYCQQSNEAPYTFGGGTKLEIK", 0.359),
    ("29A8H8C7 (antibody, V domains shown, Mouse hybridoma clone; Made recombinantly as variable region + constant region in HEK293-6E) VH: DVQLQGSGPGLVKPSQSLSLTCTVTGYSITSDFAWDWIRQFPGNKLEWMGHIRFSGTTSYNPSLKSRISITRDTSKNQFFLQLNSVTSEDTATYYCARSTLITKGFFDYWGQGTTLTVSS VL: DIVMTQSHKFMSTSVGGRVSITCKASQDVSPAVAWYQQKPGQSPKLLIYWASTRHTGVPDRFTGSGSGTDFTLTISSVQTEDLALYYCQQHYSTPWTFGGGTKLEIK", 0.101),
    ("42G2D7C3 (antibody, V domains shown, Made recombinantly as variable region + constant region; also called 42G2D7D3) VH: DVQLLESGPGLVKPSQSLSLTCSVTGYSITSGYYWNWIRQFPGNNLEWMGSINYDGSNDYNPSLQDRISITRDTSKNQFFLKLNSVTTEDTATYYCARRLDYWGQGTTLIVSS VL: QIVLTQSPAIMSASPGEKVTISCSASSFINYMYWYQQKPGSSPKPWILRTSTLASGVPARFSGSGSGTSYSLTISSMEAEDAATYYCQQYHSYPLTFGAGTKLELK", 0.235),
]

Consider the record given below.
Return reported IL-2分泌 (混合淋巴细胞反应) EC50; argument: 51F3D2G4 (antibody, V domains shown, Mouse hybridoma clone; Made recombinantly as variable region + constant region in HEK293-6E) VH: QVQLQQSGAELARPGASVRLSCKASGYIFTGYGISWVKQRTGQGLEWIGEIFPRTANTYFNEKFKGKATLTADKSSSTAYMELRSLTSEDSAVYFCARDYDPYYALDYWGQGTSVTVSS VL: DIVMTQSHKFMSTSVGDRVTITCKASQDVSTAVDWYQQKPGQSPKLLIYSASYRYTGVPDRFTGSGSGTAFTFTISSEQAEDLAVYYCQQHYSVPFTFGGGTKLEIK
0.209
